target: ATR/ATRIP complex (Homo sapiens (Human), UniProt Q13535); experiment: ATR/ATRIP enzymatic assay (Caliper-based); conditions: FAM-labeled RAD17 peptide, ATP; read-out: ATR/ATRIP Enzyme IC50
Sequence (Q13535 whole entry): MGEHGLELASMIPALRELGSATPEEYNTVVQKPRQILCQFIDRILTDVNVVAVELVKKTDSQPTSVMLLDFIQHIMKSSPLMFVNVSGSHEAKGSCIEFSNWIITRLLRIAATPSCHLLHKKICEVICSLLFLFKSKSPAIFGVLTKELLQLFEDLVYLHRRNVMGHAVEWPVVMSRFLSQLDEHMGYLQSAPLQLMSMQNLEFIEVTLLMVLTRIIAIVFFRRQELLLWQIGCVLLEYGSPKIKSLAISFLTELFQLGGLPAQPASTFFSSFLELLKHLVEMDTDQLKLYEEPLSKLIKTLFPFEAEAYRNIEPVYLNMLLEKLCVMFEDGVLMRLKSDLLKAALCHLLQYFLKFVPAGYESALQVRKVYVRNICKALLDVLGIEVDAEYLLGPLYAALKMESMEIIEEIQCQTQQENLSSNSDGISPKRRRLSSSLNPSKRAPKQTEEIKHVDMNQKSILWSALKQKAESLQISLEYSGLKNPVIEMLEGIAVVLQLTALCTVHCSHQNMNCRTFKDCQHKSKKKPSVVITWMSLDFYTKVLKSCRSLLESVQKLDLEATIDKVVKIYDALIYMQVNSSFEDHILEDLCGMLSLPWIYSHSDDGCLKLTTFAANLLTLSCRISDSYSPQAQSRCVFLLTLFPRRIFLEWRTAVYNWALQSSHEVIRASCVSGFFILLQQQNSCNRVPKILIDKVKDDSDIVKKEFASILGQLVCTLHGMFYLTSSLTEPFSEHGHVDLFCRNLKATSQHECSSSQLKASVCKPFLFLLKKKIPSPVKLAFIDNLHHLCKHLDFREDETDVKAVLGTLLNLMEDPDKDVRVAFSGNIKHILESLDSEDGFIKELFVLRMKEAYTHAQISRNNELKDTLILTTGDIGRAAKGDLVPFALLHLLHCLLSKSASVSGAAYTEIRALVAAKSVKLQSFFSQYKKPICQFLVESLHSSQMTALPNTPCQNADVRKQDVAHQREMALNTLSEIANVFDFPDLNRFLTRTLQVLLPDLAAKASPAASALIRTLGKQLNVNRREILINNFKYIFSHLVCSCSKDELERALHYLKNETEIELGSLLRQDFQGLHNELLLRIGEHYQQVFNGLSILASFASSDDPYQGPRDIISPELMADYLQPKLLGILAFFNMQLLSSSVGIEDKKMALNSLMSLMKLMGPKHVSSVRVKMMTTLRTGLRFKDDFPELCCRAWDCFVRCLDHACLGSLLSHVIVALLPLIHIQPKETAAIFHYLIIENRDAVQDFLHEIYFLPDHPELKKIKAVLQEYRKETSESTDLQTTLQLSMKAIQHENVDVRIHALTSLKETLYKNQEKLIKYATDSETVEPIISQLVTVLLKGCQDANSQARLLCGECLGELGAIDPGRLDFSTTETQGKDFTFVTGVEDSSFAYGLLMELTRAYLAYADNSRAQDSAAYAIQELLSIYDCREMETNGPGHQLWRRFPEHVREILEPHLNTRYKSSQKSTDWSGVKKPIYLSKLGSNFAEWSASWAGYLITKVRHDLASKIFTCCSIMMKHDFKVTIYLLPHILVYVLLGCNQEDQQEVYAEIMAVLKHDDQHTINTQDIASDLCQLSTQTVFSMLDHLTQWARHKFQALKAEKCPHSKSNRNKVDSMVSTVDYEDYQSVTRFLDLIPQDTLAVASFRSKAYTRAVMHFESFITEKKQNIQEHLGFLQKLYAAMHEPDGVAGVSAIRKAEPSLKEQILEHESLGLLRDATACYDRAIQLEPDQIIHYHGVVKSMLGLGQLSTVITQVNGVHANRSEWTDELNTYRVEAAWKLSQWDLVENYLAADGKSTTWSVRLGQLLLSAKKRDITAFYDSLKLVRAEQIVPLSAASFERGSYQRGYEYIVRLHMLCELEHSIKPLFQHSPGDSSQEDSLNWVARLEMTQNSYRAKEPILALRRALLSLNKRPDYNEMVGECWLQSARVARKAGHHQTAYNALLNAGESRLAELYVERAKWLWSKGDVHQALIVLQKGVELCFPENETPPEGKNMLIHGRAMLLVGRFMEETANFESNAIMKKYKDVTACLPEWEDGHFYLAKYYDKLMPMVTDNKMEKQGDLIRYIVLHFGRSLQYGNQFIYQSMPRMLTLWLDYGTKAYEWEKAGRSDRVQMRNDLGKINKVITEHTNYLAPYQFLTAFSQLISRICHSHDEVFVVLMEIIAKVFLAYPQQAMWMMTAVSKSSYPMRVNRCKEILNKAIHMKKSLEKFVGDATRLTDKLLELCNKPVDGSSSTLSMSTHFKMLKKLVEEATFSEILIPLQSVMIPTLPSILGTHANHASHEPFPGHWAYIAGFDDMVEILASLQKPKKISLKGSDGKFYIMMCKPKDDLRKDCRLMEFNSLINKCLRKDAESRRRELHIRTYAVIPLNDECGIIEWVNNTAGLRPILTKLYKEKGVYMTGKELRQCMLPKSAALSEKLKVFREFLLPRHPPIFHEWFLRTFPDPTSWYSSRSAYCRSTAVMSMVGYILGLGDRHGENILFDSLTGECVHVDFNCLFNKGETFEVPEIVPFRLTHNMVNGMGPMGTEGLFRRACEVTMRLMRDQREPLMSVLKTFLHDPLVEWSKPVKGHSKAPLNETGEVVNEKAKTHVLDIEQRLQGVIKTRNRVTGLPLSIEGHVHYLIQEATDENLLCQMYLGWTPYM
Sequence (Q8WXE1 whole entry partner): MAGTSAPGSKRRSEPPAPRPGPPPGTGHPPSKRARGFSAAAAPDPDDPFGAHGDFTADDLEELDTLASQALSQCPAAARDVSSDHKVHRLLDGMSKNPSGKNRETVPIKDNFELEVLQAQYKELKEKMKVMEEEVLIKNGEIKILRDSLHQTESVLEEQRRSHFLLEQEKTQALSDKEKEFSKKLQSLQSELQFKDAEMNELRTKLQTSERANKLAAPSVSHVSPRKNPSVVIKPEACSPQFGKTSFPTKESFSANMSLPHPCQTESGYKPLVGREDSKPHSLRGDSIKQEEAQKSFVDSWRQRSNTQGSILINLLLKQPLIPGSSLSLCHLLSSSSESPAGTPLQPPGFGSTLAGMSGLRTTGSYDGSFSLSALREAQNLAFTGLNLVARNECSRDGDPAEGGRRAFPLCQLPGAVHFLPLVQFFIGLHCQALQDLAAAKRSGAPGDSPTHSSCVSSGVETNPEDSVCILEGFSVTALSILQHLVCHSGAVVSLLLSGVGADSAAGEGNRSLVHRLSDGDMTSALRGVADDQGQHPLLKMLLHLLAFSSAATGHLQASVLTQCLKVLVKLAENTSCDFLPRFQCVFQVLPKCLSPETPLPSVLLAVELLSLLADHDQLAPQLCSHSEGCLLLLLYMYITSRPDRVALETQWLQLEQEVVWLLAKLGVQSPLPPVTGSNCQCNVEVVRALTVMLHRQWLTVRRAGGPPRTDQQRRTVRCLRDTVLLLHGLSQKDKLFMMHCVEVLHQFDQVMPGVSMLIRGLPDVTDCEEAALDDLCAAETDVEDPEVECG
measurementName: IC50 (nM)

molecule	IC50 [nM]
C[C@@H]1Cc2ncnc(C3CCCN(S(C)(=O)=O)C3)c2CN1c1cc(Cl)nc2[nH]ccc12 (single isomer, unassigned) [Example 51b]	2200

I: C[C@@H]1Cc2ncnc(N3C[C@H]4CC[C@@H](C3)[C@H]4NS(C)(=O)=O)c2CN1c1ccnc2[nH]ccc12
II: C[C@@H]1Cc2ncnc(C3CCCN(S(C)(=O)=O)C3)c2CN1c1cc(Cl)nc2[nH]ccc12 (single isomer, unassigned) [Example 51a]
Higher IC50: I or II ? Mark your answer with the label of the selected entry.
II
(II: 561 nM, I: 279 nM)
